system: HepG2 B6 cells (STAT-sPAP reporter); assay: OSM-GST mutant driven sPAP production in HepG2 B6 assay; format: cell-based, human
Assay endpoint: Expt 2 EC50 (µg/mL)
Give bare numbers, in µg/mL.

For the molecule (11) Q18A: OSM-GST fusion, alanine for Gln 18 (protein, left off: a dimerising Fc or GST; large carriers; small tags and cut ends) AAIGSCSKEYRVLLGQLAKQTDLMQDTSRLLDPYIRIQGLDVPKLREHCRERPGAFPSEETLRGLGRRGFLQTLNATLGCVLHRLADLEQRLPKAQDLERSGLNIEDLEKLQMARPNILGLRNNIYCMAQLLDNSDTAEPTKAGRGASQPPTPTPASDAFQRKLEGCRFLHGYHRFMHSVGRVFSKWGESPNRSRR , give its reported Expt 2 EC50.
0.0217
